Just for reference, the supplement of paper PMC13380429 is where these values come from.

Tested on: U2OS
Measurement Description: cell viability relative to DMSO; higher = less toxic
Experimental Context: 72 h; 10000 nM
Result Type: cell viability (%)
Only the number, expressed in %, is required.

1) CCCCCCCCCCCCCCCCCCCCCCCCCCCCO	96

Now let's try a different one.
Asked: Give cell viability; test system U2OS; compound `[Cl][Ru-]([Cl])([Cl])[Cl].[Na+].c1ccc2[nH]ncc2c1.c1ccc2[nH]ncc2c1`
Given back: 99.5

* * *

System: U2OS
Measurement Description: cell viability relative to DMSO; higher = less toxic
Experimental Context: 72 h; 1000 nM
Mark label 1 for cell viability under 90%, label 0 if at or over.

Solved cases (5 shown):
1) Nc1nc(NCCc2ccc(O)cc2)nc2nc(-c3ccco3)nn12	label 0
2) COc1cc2c(cc1OC)-c1cc3ccc(OC)c(OC)c3c[n+]1CC2 [palmatine-chloride]	label 0
3) Cc1nc(Nc2ncc(C(=O)Nc3c(C)cccc3Cl)s2)cc(N2CCN(CCO)CC2)n1 [dasatinib]	label 1
4) CC(C)C1=C2[C@H]3CC[C@@H]4[C@@]5(C)CC[C@H](OC(=O)CC(C)(C)C(=O)O)C(C)(C)[C@@H]5CC[C@@]4(C)[C@]3(C)CC[C@@]2([C@@H](O)CN(CCN(C)C)Cc2ccc(Cl)cc2)CC1=O	label 0
5) COc1ccc(/C=C\c2cc(OC)c(OC)c(OC)c2)cc1OP(=O)(O)O [fosbretabulin]	label 1

Asked: Consider [Cl][Ru-]([Cl])([Cl])[Cl].[Na+].c1ccc2[nH]ncc2c1.c1ccc2[nH]ncc2c1 [NKP-1339] . Does its cell viability lie strictly below 90%?
Given back: label 0

Asked: Consider `CC(C)C[C@@H](C(=O)N[C@@H](Cc1ccc(OCc2ccccc2)cc1)C(=O)NC(C)(C)C)N(C)Cc1ccc(C(C)(C)C)cc1` . Does its cell viability lie strictly below 90%?
Given back: label 0

* * *

Measured drug sensitivity score by item
Tested on: Calu-3
Measurement Description: drug sensitivity score (DSS) for viability; higher = more toxic; extreme values may be limits of the assay
Experimental Context: 72 h
Reply briefly: the number, and no unit.

1. C[C@]12C=CC(=O)C=C1CC[C@@H]1[C@@H]2[C@@H](O)C[C@@]2(C)[C@H]1CC[C@]2(O)C(=O)COC(=O)CCC(=O)O [prednisolone-hemisuccinate]	0

Asked: Fill in drug sensitivity score for record Cc1ccccc1C(=O)Nc1ccc(C(=O)N2CCCC(N(C)C)c3ccccc32)cc1 (centres undefined) [mozavaptan]
Given back: 1.4

Asked: Fill in drug sensitivity score for record O=C(O)c1ccc(N2C(=O)/C(=C/c3ccc(-c4ccc([N+](=O)[O-])cc4)o3)C=C2c2ccccc2)cc1 [4E1RCat]
Given back: 0

Asked: Fill in drug sensitivity score for record `Nc1ccc(C(=O)Nc2cccc(-c3nc(N4CCOCC4)c4oc5ncccc5c4n3)c2)cn1`
Given back: 0

* * *

Measured cell viability by item
System: Caco-2
Measurement Description: cell viability relative to DMSO; higher = less toxic
Experimental Context: 72 h; 10000 nM
Only the number, expressed in %, is required.

1. CCC(CC)CC1(C(=O)Nc2ccccc2SC(=O)C(C)C)CCCCC1	107
2. COc1ccc2[nH]c3c(-c4cccc5ccccc45)nccc3c2c1	39.5
3. O=C1CN2Cc3c(ccc(Cl)c3Cl)N=C2N1 [anagrelide]	96.9
4. O=C(O)C1=C(CSc2nnnn2CS(=O)(=O)O)CS[C@@H]2[C@H](NC(=O)[C@H](O)c3ccccc3)C(=O)N12 [Cefonicid (sodium)]	102
5. Cc1cnc(NC(=O)Nc2cc(Br)c(C)cc2OC[C@@H]2CNCCO2)cn1	37.8

Asked: Fill in cell viability for record `Cc1[nH]cnc1-c1ccc(Cl)cc1`
Given back: 101

Asked: Fill in cell viability for record `CNC(=O)CN1CCC(Oc2cc3c(Nc4cccc(Cl)c4F)ncnc3cc2OC)CC1`
Given back: 65.5

Asked: Fill in cell viability for record `Nc1ccn([C@H]2CO[C@@H](CO)S2)c(=O)n1`
Given back: 105

Asked: Fill in cell viability for record `Nc1nc(=O)c2sc(=O)n([C@@H]3O[C@H](CO)[C@@H](O)[C@H]3O)c2[nH]1`
Given back: 103
